src = patent US20060069132A1

# Test system: wild oat
# assayExplanation: Test B postemergence herbicide test
# Type: in vivo, Avena fatua
# details: postemergence, 500 g ai/ha; visual rating, scale 0 (no effect) to 100 (complete control)
measurementKind: Oat, Wild plant response rating
Reply with the value as a number alone.

>  <smilesData>
CC(=NO)c1cccc(NC(=O)c2cn(C(C)C)nc2C)c1

>  <Oat, Wild plant response rating>
0

$$$$
>  <smilesData>
CCn1nc(C(C)(C)C)cc1C(=O)Nc1cccc(OCCCF)c1

>  <Oat, Wild plant response rating>
30

$$$$
>  <smilesData>
CCN(CC)C(=O)c1cccc(NC(=O)c2nn(C(C)(C)C)cc2Cl)c1

>  <Oat, Wild plant response rating>
0

$$$$
>  <smilesData>
CCn1nc(C(C)(C)C)cc1C(=O)Nc1cc(C(=O)NC(C)(C)C)ccn1

>  <Oat, Wild plant response rating>
30

$$$$
>  <smilesData>
CCNC(=O)c1cccc(NC(=O)c2nn(C(C)(C)C)cc2C(F)(F)F)c1

>  <Oat, Wild plant response rating>
10

$$$$
>  <smilesData>
CCOC(=O)c1ccnc(NC(=O)c2cn(C(C)(C)C)nc2CC)c1

>  <Oat, Wild plant response rating>
10

$$$$
>  <smilesData>
CCc1nc(C(C)(C)C)sc1C(=O)Nc1cccc(C(=O)N(CC)CC)c1

>  <Oat, Wild plant response rating>
30

$$$$

Let's switch to this compound now.
Input line: Query (compound): `CCn1nc(C(C)(C)C)cc1C(=O)Nc1cc(C(=O)NCC2CC2)ccn1` ; field requested: Oat, Wild plant response rating
Output line: 50

----------
# Tested on: barnyardgrass
# assayExplanation: Test B flooded paddy test
# Type: in vivo, Echinochloa crus-galli
# details: 1000 g ai/ha, scale 0 to 100 (0 no effect, 100 complete control)
measurementKind: Barnyardgrass plant response rating
Reply with the value as a number alone.

Previously resolved entries follow.
>  <molecule>
CCc1nn(C(C)(C)CC)nc1C(=O)Nc1cc(C(=O)N2CC=CC2)ccc1F

>  <endpointValue>
30

$$$$
>  <molecule>
C#CCNC(=O)c1ccc(F)c(NC(=O)c2cc(C(C)(C)C)nn2CC)n1

>  <endpointValue>
10

$$$$
>  <molecule>
CCN(C(C)=O)C(=O)c1ccc(F)c(NC(=O)c2cc(C(C)(C)C)nn2CC)c1

>  <endpointValue>
60

$$$$
>  <molecule>
CCOC(=O)c1ccnc(NC(=O)c2cn(C(C)(C)C)nc2CC)c1

>  <endpointValue>
10

$$$$
>  <molecule>
C#CCNC(=O)c1cc(NC(=O)c2cc(C(C)(C)C)nn2CC)ccn1

>  <endpointValue>
20

$$$$

Input line: Query (molecule): `CCc1nn(C(C)(C)C)nc1C(=O)Nc1cc(C(=O)N2CC=CC2)ccc1F` ; field requested: Barnyardgrass plant response rating
Output line: 60

Input line: Query (molecule): `CCn1nc(C(C)(C)C)cc1C(=O)Nc1ccnc(C(=O)N(C)C)c1` ; field requested: Barnyardgrass plant response rating
Output line: 30

Input line: Query (molecule): `CCc1nn(C(C)C)nc1C(=O)Nc1cccc(C(=S)N(C)C)c1` ; field requested: Barnyardgrass plant response rating
Output line: 90

Input line: Query (molecule): `CCNC(=O)c1ccc(F)c(NC(=O)c2nn(C(C)C)nc2C)c1` ; field requested: Barnyardgrass plant response rating
Output line: 0

Input line: Query (molecule): `C=CCNC(=O)c1cccc(NC(=O)c2cc(C(C)(C)C)nn2C)n1` ; field requested: Barnyardgrass plant response rating
Output line: 70

Input line: Query (molecule): `CCNC(=O)c1ccc(F)c(NC(=O)c2cc(C(C)(C)C)nn2CC)n1` ; field requested: Barnyardgrass plant response rating
Output line: 60

Input line: Query (molecule): `CCNC(=S)c1cccc(NC(=O)c2nn(C(C)(C)C)nc2C)c1` ; field requested: Barnyardgrass plant response rating
Output line: 90

Input line: Query (molecule): `CCn1nc(C(C)(C)C)cc1C(=O)Nc1nc(C(=O)N2CC=CC2)ccc1F` ; field requested: Barnyardgrass plant response rating
Output line: 70
